Molecular target: T1, SUMO-RRM R504E (Schizosaccharomyces pombe, UniProt Q9UTE3 388-540, R504E)
T1 sequence: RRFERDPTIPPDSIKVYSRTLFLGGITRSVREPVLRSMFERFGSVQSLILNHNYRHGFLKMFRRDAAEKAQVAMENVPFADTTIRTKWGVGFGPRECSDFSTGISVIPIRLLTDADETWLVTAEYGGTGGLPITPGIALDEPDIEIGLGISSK
Assay: fluorescence anisotropy; 25 mM Tris-HCl pH 8.0, 100 mM NaCl, 2 mM MgCl2, 1 mM DTT, 16.7% glycerol, 0.1% IGEPAL, 0.1 mg/ml tRNA, 2.5% RNasin, 25 C, 40 nM FAM-RNA
Conditions: protein: recombinant; tags: N-terminal His6-SUMO; single strand
REPORTED ENDPOINT: Kd
Units required after the number.

For AUUAGUAAAA (ssRNA) [FAM-AUUAGUAAAA RNA] the binder record lists Kd as 2.37 µM
